reported-conditions: calculated from CC and plasma protein binding
Can you tell me Free conc. (FCC; free plasma concentration) for the items I'm about to list?
Answers are plain numbers, in nM.

Fill in Free conc. (FCC; free plasma concentration) for each of the 4 molecules listed.
1. COC(=O)c1ccc2c(c1)NC(=O)/C2=C(\Nc1ccc(N(C)C(=O)CN2CCN(C)CC2)cc1)c1ccccc1
2. N[C@@H](CC(=O)N1CCn2c(nnc2C(F)(F)F)C1)Cc1cc(F)c(F)cc1F
3. C/C(O)=C(\C#N)C(=O)Nc1ccc(C(F)(F)F)cc1 [Teriflunomide]
4. COCCCOc1cc(C[C@@H](C[C@H](N)[C@@H](O)C[C@H](C(=O)NCC(C)(C)C(N)=O)C(C)C)C(C)C)ccc1OC

70.8
1200
54.0
166

====

reported-conditions: calculated from CC and plasma protein binding
quantity-measured: Free conc. (FCC; free plasma concentration) (nM)
Answers are plain numbers, in nM.

# smiles, measurement-unit, measurement
data = [
    ("CC[C@H](C)[C@@H]1NC(=O)[C@H](Cc2ccc(O)cc2)NC(=O)[C@@H](N)CSSC[C@@H](C(=O)N2CCC[C@H]2C(=O)N[C@@H](CC(C)C)C(=O)NCC(N)=O)NC(=O)[C@H](CC(N)=O)NC(=O)[C@H](CCC(N)=O)NC1=O", "nM", 2.0),
]

Hi team, please reply with Free conc. (FCC; free plasma concentration) for each item in this list.
1. O=C(Nc1c(Cl)cncc1Cl)c1ccc(OC(F)F)c(OCC2CC2)c1
2. C[C@]12CC[C@H](O)CC1=CC[C@@H]1[C@@H]2CC[C@]2(C)C(c3cccnc3)=CC[C@@H]12
3. CCC[C@H](NC(=O)[C@@H]1[C@H]2CCC[C@H]2CN1C(=O)[C@@H](NC(=O)[C@@H](NC(=O)c1cnccn1)C1CCCCC1)C(C)(C)C)C(=O)C(=O)NC1CC1

1: 0.2; 2: 7.8; 3: 1600

Please report Free conc. (FCC; free plasma concentration) for every entry that follows.
1. O=C(NC[C@H]1CN(c2ccc(N3CCOCC3=O)cc2)C(=O)O1)c1ccc(Cl)s1
2. CCCc1nn(C)c2c(=O)[nH]c(-c3cc(S(=O)(=O)N4CCN(C)CC4)ccc3OCC)nc12

[41.4, 11.0]
